IC50 overview
Tested on: PC-3
Test: Antiproliferative activity against human PC3 cells expressing PCDNA after 72 hrs by MTT assay
Type: functional, cell-based
Conditions: PC-3, 72 h

Compound | Study system | IC50
CS(=O)(=O)c1ccc(C2=C(c3ccccc3Cl)C(=O)O/C2=C\c2ccc3c(c2)OCO3)cc1 | PC-3 | > 50 µM
CS(=O)(=O)c1ccc(C2=C(c3ccc(F)cc3)C(=O)O/C2=C\c2ccc3c(c2)OCO3)cc1 | PC-3 | > 50 µM
CN(C)c1ccc(/C=C2\OC(=O)C(c3ccccc3)=C2c2ccc(S(C)(=O)=O)cc2)cc1 | PC-3 | > 50 µM
COc1ccc(/C=C2\OC(=O)C(c3ccccc3Cl)=C2c2ccc(S(C)(=O)=O)cc2)cc1 | PC-3 | > 50 µM
CS(=O)(=O)c1ccc(C2=C(c3ccccc3Cl)C(=O)O/C2=C\c2ccccc2Cl)cc1 | PC-3 | > 50 µM
CS(=O)(=O)c1ccc(C2=C(c3ccc(F)cc3)C(=O)O/C2=C\c2ccc(O)cc2)cc1 | PC-3 | 25.9 µM
CS(=O)(=O)c1ccc(C2=C(c3ccc(F)cc3)C(=O)O/C2=C\c2ccc(F)cc2)cc1 | PC-3 | > 50 µM
CS(=O)(=O)c1ccc(C2=C(c3ccc(F)cc3)C(=O)O/C2=C\c2cccc([N+](=O)[O-])c2)cc1 | PC-3 | > 50 µM

Consider COC1(C)OC(=O)C(c2ccccc2Cl)=C1c1ccc(S(C)(=O)=O)cc1 (configuration not stated) . Its measured IC50 is 5.17 µM

compound CS(=O)(=O)c1ccc(C2=C(c3ccc(F)cc3)C(=O)O/C2=C\c2ccc(Br)cc2)cc1 , IC50 observed: > 50 µM

The reported IC50 of the compound CS(=O)(=O)c1ccc(C2=C(c3ccc(F)cc3)C(=O)O/C2=C\c2cccc3ccccc23)cc1 was 20 µM

Query COc1cc(/C=C2\OC(=O)C(c3ccccc3Cl)=C2c2ccc(S(C)(=O)=O)cc2)ccc1O yields IC50 of > 50 µM

For record COc1ccc(/C=C2\OC(=O)C(c3ccc(F)cc3)=C2c2ccc(S(C)(=O)=O)cc2)cc1 the listed IC50 is > 50 µM

Entry CS(=O)(=O)c1ccc(C2=C(c3ccc(F)cc3)C(=O)O/C2=C\c2ccco2)cc1 , IC50 reported as > 50 µM

Lab note: measured IC50 of CS(=O)(=O)c1ccc(C2=C(c3ccccc3Cl)C(=O)OC2)cc1 was > 50 µM

Form field IC50, entry COc1ccc(/C=C2\OC(=O)C(c3ccccc3)=C2c2ccc(S(C)(=O)=O)cc2)cc1 : > 50 µM

// IC50 lookup, compound = COc1cc(/C=C2\OC(=O)C(c3ccc(F)cc3)=C2c2ccc(S(C)(=O)=O)cc2)ccc1O , result: > 50 µM

response.value for CS(=O)(=O)c1ccc(C2=C(c3ccc(F)cc3)C(=O)OC2)cc1 (field: IC50) = > 50 µM

For reference, reported IC50 for CS(=O)(=O)c1ccc(C2=C(c3ccccc3)C(=O)O/C2=C\c2ccc(Br)cc2)cc1 stands at 25.2 µM

IC50 reading for COc1ccccc1/C=C1\OC(=O)C(c2ccccc2)=C1c1ccc(S(C)(=O)=O)cc1 : > 80 µM

Kindly note the recorded IC50 for COc1ccccc1/C=C1\OC(=O)C(c2ccc(F)cc2)=C1c1ccc(S(C)(=O)=O)cc1 , which is 18.2 µM

Lab note: measured IC50 of CS(=O)(=O)c1ccc(C2=C(c3ccccc3Cl)C(=O)O/C2=C\c2ccccc2)cc1 was > 50 µM

IC50 measured on CS(=O)(=O)c1ccc(C2=C(c3ccc(F)cc3)C(=O)O/C2=C\c2ccccc2Cl)cc1 = > 50 µM

Entry CS(=O)(=O)c1ccc(C2=C(c3ccccc3)C(=O)O/C2=C\c2ccco2)cc1 — recorded IC50 = > 100 µM

So for CS(=O)(=O)c1ccc(C2=C(c3ccccc3Cl)C(=O)O/C2=C\c2cccc3ccccc23)cc1 , the logged IC50 turned out to be > 50 µM

Lab book: IC50 of CC(C)=C1OC(=O)C(c2ccccc2)=C1c1ccc(S(C)(=O)=O)cc1 noted as > 50 µM

Item: COC1(C)OC(=O)C(c2ccccc2)=C1c1ccc(S(C)(=O)=O)cc1 (configuration not stated) | IC50: 37.1 µM

Entry under test: CS(=O)(=O)c1ccc(C2=C(c3ccccc3)C(=O)O/C2=C\c2ccc3c(c2)OCO3)cc1 . Its IC50 was 37.2 µM

Entry CN(C)c1ccc(/C=C2\OC(=O)C(c3ccc(F)cc3)=C2c2ccc(S(C)(=O)=O)cc2)cc1 , IC50 reported as > 50 µM

The reported IC50 of the compound COC1(C)OC(=O)C(c2ccc(F)cc2)=C1c1ccc(S(C)(=O)=O)cc1 (configuration not stated) was 36.4 µM

Please fill in: IC50 reported for CS(=O)(=O)c1ccc(C2=C(c3ccccc3Cl)C(=O)O/C2=C\c2ccc(O)cc2)cc1 = > 50 µM

For CS(=O)(=O)c1ccc(C2=C(c3ccccc3)C(=O)O/C2=C\c2ccc(Cl)cc2)cc1 the compound record lists IC50 as > 50 µM

Value of IC50 reported for the compound COc1cc(/C=C2\OC(=O)C(c3ccc(F)cc3)=C2c2ccc(S(C)(=O)=O)cc2)cc(OC)c1OC is > 50 µM

###

IC50 values by entry
Test system: PC-3
Assay: Antiproliferative activity against human PC3 cells expressing PCDNA after 72 hrs by MTT assay
Assay type: functional, cell-based
Details: PC-3, 72 h

Use the examples below as a reference point.
Structure string | IC50
CS(=O)(=O)c1ccc(C2=C(c3ccccc3)C(=O)O/C2=C\c2cccc3ccccc23)cc1 | > 50 µM
COc1cc(/C=C2\OC(=O)C(c3ccccc3)=C2c2ccc(S(C)(=O)=O)cc2)ccc1O | > 125 µM
CS(=O)(=O)c1ccc(C2=C(c3ccccc3)C(=O)O/C2=C\c2cccc([N+](=O)[O-])c2)cc1 | > 90 µM

Field: next molecule
The molecule COc1cc(/C=C2\OC(=O)C(c3ccccc3Cl)=C2c2ccc(S(C)(=O)=O)cc2)cc(OC)c1OC showed IC50 equal to > 50 µM

###

Molecular target: Prostaglandin G/H synthase 1 (Ovis aries) (UniProt P05979)
Sequence (whole entry): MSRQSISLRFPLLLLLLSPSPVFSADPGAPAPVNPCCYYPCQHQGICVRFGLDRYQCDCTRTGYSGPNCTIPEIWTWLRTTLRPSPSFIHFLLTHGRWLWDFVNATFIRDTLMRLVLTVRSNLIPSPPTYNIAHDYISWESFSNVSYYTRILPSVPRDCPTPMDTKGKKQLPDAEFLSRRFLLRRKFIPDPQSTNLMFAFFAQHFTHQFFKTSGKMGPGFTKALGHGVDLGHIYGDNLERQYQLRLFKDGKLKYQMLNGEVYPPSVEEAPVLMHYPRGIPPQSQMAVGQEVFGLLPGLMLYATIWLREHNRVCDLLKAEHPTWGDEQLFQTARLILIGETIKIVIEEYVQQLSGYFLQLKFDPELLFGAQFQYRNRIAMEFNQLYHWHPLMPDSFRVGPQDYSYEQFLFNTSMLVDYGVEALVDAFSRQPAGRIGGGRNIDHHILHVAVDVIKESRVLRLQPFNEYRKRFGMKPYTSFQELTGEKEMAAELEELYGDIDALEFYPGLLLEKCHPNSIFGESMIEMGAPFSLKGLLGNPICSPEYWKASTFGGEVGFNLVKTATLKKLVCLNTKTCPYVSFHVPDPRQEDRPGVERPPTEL
Assay: Inhibition of ovine COX-1 assessed as using arachidonic acid as substrate at 10 uM preincubated for 5 mins prior to substrate addition […] by enzyme immunoassay relative to control
The source made the active and inactive calls. No cut-off for these calls is given here.
Value type: inhibition

Some compounds with known inhibition results, for comparison:
Structure string | Study system | Value type | Value observed
COc1ccc(/C=C2\OC(=O)C(c3ccc(F)cc3)=C2c2ccc(S(C)(=O)=O)cc2)cc1 | Prostaglandin G/H synthase 1 (Ovis aries) (UniProt P05979) | inhibition | 10.2%
CN(C)c1ccc(/C=C2\OC(=O)C(c3ccc(F)cc3)=C2c2ccc(S(C)(=O)=O)cc2)cc1 | Prostaglandin G/H synthase 1 (Ovis aries) (UniProt P05979) | inhibition | inactive
COc1ccc(/C=C2\OC(=O)C(c3ccccc3Cl)=C2c2ccc(S(C)(=O)=O)cc2)cc1 | Prostaglandin G/H synthase 1 (Ovis aries) (UniProt P05979) | inhibition | 61.2%
CS(=O)(=O)c1ccc(C2=C(c3ccccc3Cl)C(=O)O/C2=C\c2cccc([N+](=O)[O-])c2)cc1 | Prostaglandin G/H synthase 1 (Ovis aries) (UniProt P05979) | inhibition | 7.01%
COc1ccc(/C=C2\OC(=O)C(c3ccccc3)=C2c2ccc(S(C)(=O)=O)cc2)cc1 | Prostaglandin G/H synthase 1 (Ovis aries) (UniProt P05979) | inhibition | 65.9%

Looking up CS(=O)(=O)c1ccc(C2=C(c3ccc(F)cc3)C(=O)OC2)cc1 , I see its inhibition listed as 28.5%

# compound CS(=O)(=O)c1ccc(C2=C(c3ccccc3)C(=O)O/C2=C\c2ccc(Cl)cc2)cc1 ; its inhibition = 14.6%

Lab book: inhibition of CS(=O)(=O)c1ccc(C2=C(c3ccc(F)cc3)C(=O)O/C2=C\c2cccc([N+](=O)[O-])c2)cc1 noted as inactive

The reported inhibition of the compound CS(=O)(=O)c1ccc(C2=C(c3ccccc3)C(=O)O/C2=C\c2ccco2)cc1 was inactive
